system: glutaminase C (GAC) (Homo sapiens, UniProt O94925, Y466W)
Sequence (O94925 72-550 Y466W): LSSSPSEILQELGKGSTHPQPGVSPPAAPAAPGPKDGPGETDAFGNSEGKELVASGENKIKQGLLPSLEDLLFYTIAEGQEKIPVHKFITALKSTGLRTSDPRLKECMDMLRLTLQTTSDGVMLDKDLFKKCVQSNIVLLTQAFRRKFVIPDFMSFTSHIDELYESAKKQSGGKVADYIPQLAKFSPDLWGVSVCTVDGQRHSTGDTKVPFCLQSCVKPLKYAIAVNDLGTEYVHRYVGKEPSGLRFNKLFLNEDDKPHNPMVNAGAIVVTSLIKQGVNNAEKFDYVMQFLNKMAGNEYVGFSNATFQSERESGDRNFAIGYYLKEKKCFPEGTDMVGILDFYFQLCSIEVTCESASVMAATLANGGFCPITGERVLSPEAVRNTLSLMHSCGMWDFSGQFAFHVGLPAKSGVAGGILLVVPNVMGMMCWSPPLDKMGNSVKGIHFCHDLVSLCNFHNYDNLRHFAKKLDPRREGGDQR
test summary: Trp466 fluorescence titration of phosphate at […] glutamine
pKd: −log10 of the molar value.
quantity measured: pKd

>>> endpoint_result("O=P(O)(O)O [inorganic phosphate]")
2.07
